Please provide measured T/C for the entries that follow.
System: B6C3F1 mice, B16 melanoma ip, median survival T/C
assay-overview: NCI In Vivo Anticancer Drug Screen. Data for tumor model B16 Melanoma (intraperitoneal) in B6C3F1 mice
setup-conditions: endpoint: median survival time; dose: 12.5 mg/kg/injection; schedule: Q01DX009 (ip); vehicle: saline; higher = longer survival
Toxic doses and inconclusive results are not listed.

Solved cases (6 shown):
>  <compound>
Cc1cn(C2CC(O)C(CO)O2)c(=O)[nH]c1=O (stereo not drawn)

>  <val>
99 % of control

$$$$
>  <compound>
O=Cc1ccc(O)c(O)c1

>  <val>
97 % of control

$$$$
>  <compound>
CN(C)CCNc1ccc([N+](=O)[O-])c2sc3ccccc3c(=O)c12

>  <val>
101 % of control

$$$$
>  <compound>
CCCCCCCCCCCCOCCCOP(=O)([O-])OCC[N+](C)(C)C

>  <val>
100 % of control

$$$$
>  <compound>
O=C1C=CC(=O)O1 (tested in a mixture with another compound)

>  <val>
101 % of control

$$$$
>  <compound>
O=c1[nH]c2c(ccc3cnccc32)c2c1CCC2

>  <val>
119 % of control

$$$$

Provide the reported T/C of each entry below, same order.
1. CCCCCC#CC1OC12CCCCC2 (stereo not drawn)
2. CCC(C)n1ncc2c(N(C)C)ncnc21 (stereo not drawn)

Result:
1: 99 % of control; 2: 95 % of control
